Assay: in vitro
Settings: human, uninfected MT-4 cells, CC50 (nM), same protocol as Test A, CellTiter-Glo
measuredAttribute: CC50 at 5 days

O=C(Cn1nc(C(F)F)c2c1C(F)(F)C1CC21)N[C@@H](Cc1cc(F)cc(F)c1)c1ncccc1-c1cnc2nccnc2c1 (stereo partly drawn) : 43000 nM
Cc1cc2[nH]cc(CC(=O)N[C@@H](Cc3cc(F)cc(F)c3)c3ncccc3-c3cccc(C(N)=O)c3)c2[nH]c1=O : > 53000 nM
Cc1cc(F)ccc1-c1cccnc1[C@H](Cc1cc(F)cc(F)c1)NC(=O)Cc1c[nH]c2ccc(F)cc12 : 44600 nM
O=C(Cn1nc(C(F)F)c2c1C(F)(F)C1CC21)N[C@@H](Cc1cc(F)cc(F)c1)c1ncncc1-c1ccc2cccnc2c1 (stereo partly drawn) [Example 124C] : 20200 nM
COc1ccc2c(c1)C(CC(=O)N[C@@H](Cc1cc(F)cc(F)c1)c1ncccc1-c1ccc(F)c(C(N)=O)c1)C(=O)N2 (stereo partly drawn) : > 53200 nM
Cc1c(C#N)c(C(F)(F)F)nn1CC(=O)N[C@@H](Cc1cc(F)cc(F)c1)c1ncccc1-c1ccc(F)c(C(N)=O)c1 : 29100 nM

====

# CC50 at 5 days listing for each entry below
Experiment: in vitro
Details: human, uninfected MT-4 cells, CC50 (nM), same protocol as Test A, CellTiter-Glo
measuredAttribute: CC50 at 5 days (nM)

NC(=O)c1cc(-c2cccnc2[C@H](Cc2cc(F)cc(F)c2)NC(=O)Cn2cc(C3CC3)c(C(F)(F)F)n2)ccc1F : 16900
CCc1c(Br)c(C(F)(F)F)nn1CC(=O)N[C@@H](Cc1cc(F)cc(F)c1)c1ncccc1-c1ccc(F)c(C(N)=O)c1 [Example 58D] : 10000
Cc1ccccc1-c1cccnc1C(Cc1ccccc1)NC(=O)Cn1nc(C(F)(F)F)c2c1CCCC2 (stereo not shown) : 14000

====

Assay: in vitro
Details: human, uninfected MT-4 cells, CC50 (nM), same protocol as Test A, CellTiter-Glo
Description: For the antiviral assay, 40 μL of 1× test concentration of 3-fold serially diluted compound in culture medium with 10% FBS was added to each well of a 384-well plate (10 concentrations) in quadruplicate. […] Cell lysis was carried out by incubating at room temperature for 10 min and then chemiluminescence was read. […] Compound cytotoxicity and the corresponding CC50 values was determined using the same protocol as described in the antiviral assay (Test A) except that uninfected cells were used.
The threshold is 20000 nM. Values of CC50 at 5 days beneath it are tagged Satisfied; values meeting or exceeding it are tagged Not satisfied.

NC(=O)c1cc(-c2cncnc2[C@H](Cc2cc(F)cc(F)c2)NC(=O)Cn2nc(C(F)F)c3c2C(F)(F)CCC3(F)F)ccc1F [Example 308] : Not satisfied
NC(=O)c1cccc(-c2cccnc2[C@H](Cc2cc(F)cc(F)c2)NC(=O)Cn2ccc3cnc(Cl)nc32)c1 [Example 266C] : Not satisfied
O=C(Cc1c[nH]c2ccc(F)cc12)N[C@@H](Cc1cc(F)cc(F)c1)c1ncccc1-c1ccnc(-c2nn[nH]n2)c1 [Example 302] : Satisfied
NC(=O)c1cc(-c2cccnc2[C@H](Cc2cc(F)cc(F)c2)NC(=O)Cn2nc(C(F)(F)F)c3c2C(=O)CC3(F)F)ccc1F [Example 551] : Not satisfied
Cc1cc2cc(F)ccc2n1CC(=O)N[C@@H](Cc1cc(F)cc(F)c1)c1ncccc1-c1cccc(C(N)=O)c1 [Example 575B] : Satisfied
